Test system: SEM cells
Assay remarks: cell viability relative to DMSO control; higher = less cytotoxic
Condition: HPLM + 10% dialyzed FBS; 48 h; 0.000781 µM
Each entry below carries its reported cell viability.
Number only, in %; omit the unit.

Here is how some compounds turned out for cell viability.
# Compound, Readout units, Value observed
data = [
    ("C[C@@H]1C/C=C/C=C/C=C/C=C/[C@@H](O[C@@H]2O[C@H](C)[C@@H](O)[C@H](N)[C@@H]2O)C[C@@H]2O[C@](O)(C[C@@H](O)C[C@@H]3O[C@H]3/C=C/C(=O)O1)C[C@H](O)[C@H]2C(=O)O", "%", 108),
    ("Cc1ccc([N+](=O)[O-])cc1[S+](=O)([O-])N(C)/N=C/c1cnc2ccc(Br)cn12", "%", 106),
    ("CC(C)(O)[C@H]1CC[C@@](C)([C@H]2[C@@H](O)C[C@@]3(C)[C@@H]4C[C@H](O[C@@H]5O[C@H](CO)[C@@H](O)[C@H](O)[C@H]5O)[C@H]5C(C)(C)[C@@H](O[C@@H]6OC[C@@H](O)[C@H](O)[C@H]6O)CC[C@@]56C[C@@]46CC[C@]23C)O1", "%", 118),
]

Query: What measured cell viability goes with CC(NC(C)(C)C)C(=O)c1cccc(Cl)c1 (stereo unspecified) ?
Reply: 94.9

Query: So what does the record say about cell viability for C[C@@H]1O[C@@H](O[C@H]2C[C@@H](O)[C@]3(CO)[C@H]4[C@H](O)C[C@]5(C)[C@@H](C6=CC(=O)OC6)CC[C@]5(O)[C@@H]4CC[C@]3(O)C2)[C@H](O)[C@H](O)[C@H]1O ?
Reply: 85.4

Query: Would you mind telling me what cell viability value was observed for Cc1cn[nH]c1 ?
Reply: 89.9

====

Tested on: NOMO1
Assay remarks: cell viability relative to DMSO control; higher = less cytotoxic
Condition: RPMI 5 mM glucose + 10% dialyzed FBS; 48 h; 1.71 µM
Quantity kind: cell viability (%)
Numeric only. Scale: %

# Compound, Quantity kind, Value observed
measured = [
    ("CC(=O)OC[C@H]1O[C@@H]([S-])[C@H](OC(C)=O)[C@@H](OC(C)=O)[C@@H]1OC(C)=O.CCP(CC)CC.[Au+]", "cell viability", 88.7),
    ("OC1=CC2=C(C=C1)C(=O)\\C(=C(O2)\\C3=CC(=C(O)C=C3)O)O", "cell viability", 89.5),
    ("C[C@@H]1O[C@@H](O[C@H]2C[C@@H](O)[C@]3(CO)[C@H]4[C@H](O)C[C@]5(C)[C@@H](C6=CC(=O)OC6)CC[C@]5(O)[C@@H]4CC[C@]3(O)C2)[C@H](O)[C@H](O)[C@H]1O", "cell viability", 6.76),
    ("COc1ccc(C(CN(C)C)C2(O)CCCCC2)cc1 (stereo unspecified)", "cell viability", 109),
    ("COc1cc2ncn(-c3cc(OCc4ccccc4[S+](C)(=O)[O-])c(C#N)s3)c2cc1OC", "cell viability", 101),
]

Attention now turns to another entry.
Query: API: value(readout=cell viability, system=NOMO1) for record CC[N+](CC)(CC)CCOc1cccc(OCC[N+](CC)(CC)CC)c1OCC[N+](CC)(CC)CC
Reply: 100

====

Listing of recorded cell viability by entry.
Test system: NOMO1
Assay remarks: cell viability relative to DMSO control; higher = less cytotoxic
Condition: HPLM + 10% dialyzed FBS; 48 h; 1.71 µM
Give just the number in %; leave the unit off.

# Molecule, Readout units, cell viability
data = [
    ("CCN(CCO)CCCOc1ccc2c(Nc3cc(CC(=O)Nc4cccc(F)c4)[nH]n3)ncnc2c1", "%", 76.2),
    ("COc1cc(Nc2c(C#N)cnc3cc(OCCCN4CCN(C)CC4)c(OC)cc23)c(Cl)cc1Cl", "%", 83.6),
    ("CC(C)=CCC/C(C)=C/CC/C(C)=C/CSc1ccccc1C(=O)O", "%", 68.8),
    ("C[C@@H]1CN(Cc2ccc(F)cc2)[C@@H](C)CN1C(=O)c1cc2c(C(=O)C(=O)N(C)C)cn(C)c2cc1Cl", "%", 128),
    ("CCN(CC)CCOc1ccc(Cc2ccccc2)cc1", "%", 102),
]

Query: For the record CCc1cc(C(N)=S)ccn1 , what value of cell viability is listed for NOMO1?
Reply: 119

Query: Give recorded cell viability with NOMO1 for the following molecule: O=C(CS(=O)Cc1ccco1)NC/C=C\COc1cc(CN2CCCCC2)ccn1 (configuration not stated)
Reply: 98.9

====

System: P12-Ichikawa
Assay remarks: cell viability relative to DMSO control; higher = less cytotoxic
Condition: RPMI 5 mM glucose + 10% dialyzed FBS; 48 h; 0.00702 µM
Quantity kind: cell viability (%)
Write the answer as a number in %, unit excluded.

Answered cases to consult:
# Molecular string, cell viability (%)
data = [
    ("CC(C)=CCC/C(C)=C/CC/C(C)=C/CSc1ccccc1C(=O)O", 120),
    ("C[C@H]1C[C@H]2[C@@H]3CC[C@](O)(C(=O)CO)[C@@]3(C)C[C@H](O)[C@@H]2[C@@]\\4(C)/C=C\\C(=O)\\C=C14", 84.1),
    ("COc1cc([C@@H]2c3cc4c(cc3[C@H](O)[C@H]3COC(=O)[C@@H]23)OCO4)cc(OC)c1OC", 101),
    ("CC[C@]12CC[C@H]3[C@@H](CCC/4=C/C(=O)CC[C@H]34)[C@@H]1CC[C@@]2(O)C#C", 88.3),
]

Query: Can you share its cell viability? I mean this compound: COc1cccc2c1C(=O)c1c(O)c3c(c(O)c1C2=O)C[C@@](O)(C(=O)CO)C[C@@H]3O[C@H]1C[C@H](N)[C@H](O[C@H]2CCCCO2)[C@H](C)O1
Reply: 102

Query: Name the recorded cell viability for O=C(Nc1c[nH]nc1-c1nc2cc(CN3CCOCC3)ccc2[nH]1)NC1CC1 .
Reply: 91.5

====

Test system: P12-Ichikawa
Assay remarks: cell viability relative to DMSO control; higher = less cytotoxic
Condition: HPLM + 10% dialyzed FBS; 48 h; 0.00234 µM
Below, each of the compounds is paired with its reported cell viability value.
Please answer using the number first and the unit second.

# Compound, cell viability
rows = [
    ("OC1=CC=C(C=C1)\\C2=C\\OC3=C(C(=CC(=C3)O)O)C2=O", "114%"),
    ("O=C(CC12CC3CC(CC(C3)C1)C2)Nc1cccc2nc(NCCNCCO)ccc12", "88.7%"),
    ("CCC[S+](=O)([O-])Nc1ccc(F)c(C(=O)c2c[nH]c3ncc(Cl)cc23)c1F", "116%"),
]

Query: // lookup cell viability for CN1CCN(c2c(F)cc3c(=O)c(C(=O)O)cn(CCF)c3c2F)CC1
Reply: 101%

Query: Requested field: cell viability. Item: [O-]C(=O)C/1=N/C(=O)NC(=O)N1
Reply: 97%

Query: For the compound C[C@]12Cc3cn[nH]c3C[C@@H]1CC[C@@H]1[C@@H]2CC[C@@]2(C)[C@H]1CC[C@]2(C)O , what cell viability is on record?
Reply: 116%

Query: Field request: cell viability | item: CC(C)(S)[C@@H](N)C(=O)O
Reply: 112%

Query: May I ask what cell viability has been recorded for CCc1cc2c(cc1N1CCC(N3CCOCC3)CC1)C(C)(C)c1[nH]c3cc(C#N)ccc3c1C2=O ?
Reply: 99.5%

Query: Need cell viability of NC(=O)Nc1sc(-c2ccc(F)cc2)cc1C(N)=O , thanks.
Reply: 115%

Query: Sample CC[N+](CC)(CC)CCOc1cccc(OCC[N+](CC)(CC)CC)c1OCC[N+](CC)(CC)CC — what was its cell viability?
Reply: 109%

Query: Please report the recorded cell viability for CCCC(C)(COC(N)=O)COC(=O)NC(C)C (configuration not stated) .
Reply: 117%

Query: // returns reported cell viability for input O=C(CS(=O)Cc1ccco1)NC/C=C\COc1cc(CN2CCCCC2)ccn1 (configuration not stated)
Reply: 98.6%

====

System: NOMO1
Assay remarks: cell viability relative to DMSO control; higher = less cytotoxic
Condition: HPLM + 10% dialyzed FBS; 48 h; 46.1 µM
Attribute: cell viability
Please answer in the form of a number followed by its unit of measurement.

# Compound, cell viability
measured = [
    ("[O-]C(=O)C/1=N/C(=O)NC(=O)N1", "88.9%"),
    ("O=C(CC12CC3CC(CC(C3)C1)C2)Nc1cccc2nc(NCCNCCO)ccc12", "36.6%"),
    ("Cc1ccc(C(=O)Nc2cccc(C(F)(F)F)c2)cc1-c1ccc2nc(NCCN3CCOCC3)ncc2c1", "10.8%"),
    ("CN1CCN(c2c(F)cc3c(=O)c(C(=O)O)cn(CCF)c3c2F)CC1", "96.9%"),
]

Query: # query: cell viability of entry Cc1cc(OCCC[S+](C)(=O)[O-])cc(C)c1-c1cccc(COc2ccc3c(c2)OC[C@H]3CC(=O)O)c1
Reply: 67.1%

Query: Which measured cell viability value corresponds to N[S+](=O)([O-])c1cc2c(cc1Cl)NC(C(Cl)Cl)N[S+]2(=O)[O-] (stereo unspecified) ?
Reply: 124%
